The reported measurements were obtained from the supplement of paper PMC6555819.

system: PPARg:RXRa (NR concentration 180 nM, RXRa partner concentration 90 nM); assay: PBM binding z-score (relative to random genomic background probes); higher = stronger binding; sequences stand for … in GC…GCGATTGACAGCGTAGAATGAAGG
The threshold is inclusive: PBM binding z-score of exactly 0.7 counts as True; values below receive False.

SEQUENCE_ENTRY	CAT
CCTACTGGGCCATCAGGTCATTAATATCAACGTT	True
GCTGCTGGGTCAACTGATGGTCAGCTAAAGCTCG	True
TCTCGGAGGACACGAAAGGTCACAGCTCGACATC	True
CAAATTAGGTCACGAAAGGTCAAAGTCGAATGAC	True
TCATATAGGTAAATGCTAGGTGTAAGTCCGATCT	True
GGAACGAGCGCAAGTTGATAGCAGAGTTTGATGG	False
CCTAGTTGGTCTGGAGGTCACACACCGGATATGA	True
TGAAGGAGGTTAAAGATCAGGGAACGTGGCGTCG	True
CGTCCAAGGTCAGAGGTCAGTGAAGAGATGACGG	True
CGAAATAGGTCATCCAGGACAGTGAATACATTGA	True
ATCGAAAGGTCGTGATGTGAGTATACAGAAAGGC	True
GCTAGCAGGCAATTTGGGTCACTCAATGACGGGC	True
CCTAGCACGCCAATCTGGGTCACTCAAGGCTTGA	True
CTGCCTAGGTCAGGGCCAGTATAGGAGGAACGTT	False
ACGGACAGGTGAGTGAAGGTAACTCAGCTGGACG	False
CCTACTGGGCTAAGGTCATTGATCAGTCAAAGCA	True
CCTACCGGGCCAAAGGTCATTGATTCCAATGCTC	True
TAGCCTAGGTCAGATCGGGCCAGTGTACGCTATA	False
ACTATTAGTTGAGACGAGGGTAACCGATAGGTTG	False
CGTCCAAGGTCAGAGAGGTTAGTGAATGCCGAGT	True
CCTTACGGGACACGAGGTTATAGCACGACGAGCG	True
ACCTCTAGGTAAAGATAGTTCAGTGAATGCAAAT	False
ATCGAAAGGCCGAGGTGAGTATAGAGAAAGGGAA	False
CGAACGAGGGCATGAGTTGATACCAAATGCCGAT	True
TCTGCTAGGTCAGTTGTTCAGCTAACGAGCTGCC	False
CCAGACAGGTGAAAGGTATCTCAGTCTGGTACGC	True
CCTGCTAGGTCAATGGTCTGCTAAAGCAGCTCGC	True
TATACAGGGTCAAAAGCCAGAGTACGAATGTCGA	True

====

Measured PBM binding z-score, listed per entry.
system: VDR homodimer (NR concentration 270 nM); assay: PBM binding z-score (relative to random genomic background probes); higher = stronger binding; sequences stand for … in GC…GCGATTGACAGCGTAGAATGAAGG

SEQUENCE_ENTRY	PBM binding z-score
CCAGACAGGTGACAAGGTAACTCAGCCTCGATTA	-0.45
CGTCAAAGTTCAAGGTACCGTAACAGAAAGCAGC	3.09
ATCTCTAGGTAACAATTTCAGTGAAAGAGAGGAC	0.542
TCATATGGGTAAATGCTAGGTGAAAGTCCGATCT	-0.156
TCTCGTAGGACACGAAAGGTCAGAGCTCGACATC	0.852
ACTAGCAGGCCAAGGGTCATTCAAGATTAGTCCG	2.6
TAGCCTAGGTCATGCGGGCCATTATAGTGTCGGC	1.49
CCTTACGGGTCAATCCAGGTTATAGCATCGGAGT	1.32
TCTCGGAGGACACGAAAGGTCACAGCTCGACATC	2.48
CCAGACAGGTGAAAGCTAACTCAGTCTGGTACGC	-0.146
GCTTGTAGATCAAGGTTCAGAAAGACTAAGCTAA	1.33
ACTATTAGTTGAGACGATGGCAACCGATAGGTTG	0.236
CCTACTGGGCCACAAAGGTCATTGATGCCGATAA	3.31
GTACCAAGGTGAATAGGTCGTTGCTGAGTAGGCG	-0.166
AGAAGGAGGTTAAGATCAGGGAAACAGAATACAT	0.91
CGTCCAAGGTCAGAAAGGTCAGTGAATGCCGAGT	4.66
CCTAGTTGGTCAGGAGGTCACAGACCGGATATGA	2.05
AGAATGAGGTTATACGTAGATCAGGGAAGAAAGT	0.864
TCTAGTTGGTCAAAGGTCACATACTCGAAATGCG	2.75
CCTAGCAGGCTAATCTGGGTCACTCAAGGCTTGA	0.114
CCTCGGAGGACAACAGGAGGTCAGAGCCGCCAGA	0.836
ATCTCTAGGTAAAGATAGTTCAGTCAATGCAAAT	0.66
CCTACTTGGCCAAAAAGGTCATTGATGCCGATAA	3.04
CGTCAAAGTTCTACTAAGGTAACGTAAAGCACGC	0.165
CGTACAAGGTCAATGCTAGGTCAGTGAAAGCATT	3.22

====

tested on: RXRa DBDmut IVT, anti-RXR (DBD mutation: RXRa K156A/R161A, NR concentration 90 nM); assay: PBM binding z-score (relative to random genomic background probes); higher = stronger binding; sequences stand for … in GC…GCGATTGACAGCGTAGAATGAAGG
# PBM binding z-score per record follows

SEQUENCE_ENTRY	PBM binding z-score
CCTAGTTGGTTAAGGTCACACACGCTATAGGTAC	2.36
CGTCAAAGTTCCAGGTAACGTAACAGAAAGCAGC	0.141
GCTATTAGTTGAAAGGGCAGCCGAATGATTCTCG	0.695

====

# reported PBM binding z-score; entries follow
system: LXRa:RXRa (NR concentration 270 nM, RXRa partner concentration 90 nM); experiment: PBM binding z-score (relative to random genomic background probes); higher = stronger binding; sequences stand for … in GC…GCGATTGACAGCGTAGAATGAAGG

SEQUENCE_ENTRY	PBM binding z-score
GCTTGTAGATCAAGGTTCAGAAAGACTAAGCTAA	0.122
ACTATTAGTTGAGACGACGGCAACCGATAGGTTG	-0.329
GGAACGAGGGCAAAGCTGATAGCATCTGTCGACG	0.366
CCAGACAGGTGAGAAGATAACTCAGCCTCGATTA	0.15
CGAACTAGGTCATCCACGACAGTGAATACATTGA	2.48
CCAGACAGGTGAAAGATAACTCAGTCTGGTACGC	0.0578
GCAGACAGGTGAAACGCAGGTAACTCACGGTGGC	0.186
CTCGAAAGGTCGTGCTCAGGCGAGTATACCAAAC	3.56
TCAGACTGGTGAAGGTAACTCAGGTACGCAGTCG	0.98
TGAATGCGGTTATAAGATCAGGGAACGTTGCAAA	-0.262
TCTAGCAGGCCAGTGGGTCACTCAAGAGGTACGG	0.09
CCGACTGGGGCATAAGGTTACCATCAGCCAGCCC	1.43
TAACCTAGGTCATTCAGGGGCCAGTATAGAAAGC	5.3
CCGACTGGGGCAAAAGTTACCATACTCAGTACGA	-0.339
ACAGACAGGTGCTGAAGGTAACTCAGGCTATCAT	-0.633
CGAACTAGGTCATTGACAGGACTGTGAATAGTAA	2.5
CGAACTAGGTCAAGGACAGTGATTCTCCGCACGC	2.21
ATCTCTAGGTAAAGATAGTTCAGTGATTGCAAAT	3.86
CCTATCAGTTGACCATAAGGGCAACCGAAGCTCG	0.314
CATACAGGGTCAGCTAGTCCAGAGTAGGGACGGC	2.76
CCTATTAGCTGACCATAAGGGCAACCGAAGCTCG	0.335
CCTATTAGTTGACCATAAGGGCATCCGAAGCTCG	0.501
ACTATTAGTTGAGACGAGGTCAACCGATAGGTTG	3.7
CCGACTGGGGCATATGGTTACCATAAGCCAGCCC	-0.598
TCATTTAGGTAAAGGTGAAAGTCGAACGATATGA	1.46
CAAACTAGGTAACGAAAGGTCAAAGTCGAATGAC	7.4
AGAATGAGTTTATACGTAGATCAGGGAAGAAAGT	-0.0651

====

system: LXRb homodimer (NR concentration 270 nM); assay: PBM binding z-score (relative to random genomic background probes); higher = stronger binding; sequences stand for … in GC…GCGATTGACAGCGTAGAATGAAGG
Here, each record is paired with measured PBM binding z-score data.

SEQUENCE_ENTRY	STUDY_SYSTEM	PBM binding z-score
CTCGAAAGGTCGGTTGAGGTGAGTACACGGATAA	LXRb homodimer (NR concentration 270 nM)	-0.0877
GCTAGTTGGTCAGTAAAACGTCACACACCGGTCG	LXRb homodimer (NR concentration 270 nM)	-0.195
ATCTCTAGGTAACAAGTTCAGTGACAGAGAGGAC	LXRb homodimer (NR concentration 270 nM)	0.85
CCTAGTTGGGCAAGGTCACACACGCTATAGGTAC	LXRb homodimer (NR concentration 270 nM)	0.0205
